assay: Effect of filament density, poration energy and filament array size on PK profile (Examples 7-9); design: species or system guinea pigs; conditions: guinea pig, in vivo, topical or ocular, 0.5 mg, Table 17 #1: dose 0.50 mg, 4 mJ/filament, filament array area 1.0 cm^2, 400 filaments/cm^2
reported.metric: Cmax (ng/mL)
Answers are plain numbers, in ng/mL.

Consider the compound shown here: CN(C)CCc1c[nH]c2ccc(C[C@H]3COC(=O)N3)cc12 [Zolmitriptan] What is its recorded Cmax?
190

###

experiment: Effect of filament density, poration energy and filament array size on PK profile (Examples 7-9); design: species or system guinea pigs; details: guinea pig, in vivo, topical or ocular, 4 mg, Table 17 # 6: dose 4.00 mg, 5 mJ/filament, filament array area 1.5 cm^2, 400 filaments/cm^2
reported.metric: Cmax (ng/mL)
Answers are plain numbers, in ng/mL.

Tell me the measured Cmax of "CN(C)CCc1c[nH]c2ccc(C[C@H]3COC(=O)N3)cc12" , please.
1710

###

assay: Administration route study in guinea pigs (Example 5); assay type: in vivo; settings: guinea pig, blood, sc, Group 5: 2 mg/200 μL, SubQ
reported.metric: Tmax (min)
Give bare numbers, in min.

Which value of Tmax has been reported for "CN(C)CCc1c[nH]c2ccc(C[C@H]3COC(=O)N3)cc12" in the records?
5.4
